We begin with a simple list: items and their reported apparent KD of MS2 coat protein.
Test system: MS2 coat protein
test: apparent KD of MS2 coat protein; designed switch direction (-1 OFF switch, 1 ON switch): 1; higher = weaker reporter binding
experimental.parameters: input ligand: microRNA oligo, concentration not stated
Answer format: numeric, µM implied, no suffix.

Example entries begin here.
Can you look up the measured apparent KD of MS2 coat protein of GUUACAUGAGGAUCACCCAUGUAUGUGUGGGAGUAAGUGUCUUAGGAUAUCUGUUAUUUAAUUCAAGAGAAGGAAGAUUGUUGU [JMF's solution 46] (Eterna round: R96, puzzle: Same State NG 3) for me? 0.0791

Find the recorded apparent KD of MS2 coat protein belonging to UGGCUGGUGCUAGGAUAUACAUGAGGAAUCCUCGUAGAAGGAUCACGACAUGAGGAUCACCCAUGUAGCCGUCCGUAGACGGCU [salish99_SSNG1_r04_006] (Eterna round: R96, puzzle: Same State NG 1) and report it. 0.19

# context switch: different sequence, same apparent KD of MS2 coat protein
Looking for the measured apparent KD of MS2 coat protein of GUUACAUGAGGAUCACCCAUGUAUGUGUGGGAGUAAGUGUCUUAGGAUAUCUGUUAUUUUAUUUAAGAGAAGGAAGAUUGUUGU [JMF's solution 39] (Eterna round: R96, puzzle: Same State NG 3) , can you help? 0.0689

====

Each entry below carries its reported apparent KD of MS2 coat protein.
Test system: MS2 coat protein
test: apparent KD of MS2 coat protein; designed switch direction (-1 OFF switch, 1 ON switch): -1; higher = weaker reporter binding
experimental.parameters: input ligand: FMN 200 uM
// units = nM; emit number, no label

// returns reported apparent KD of MS2 coat protein for input GCAGAUGUAGUGAGGAUAUGCUCUACCUCGGUAGAGCAGAAGGCACAUGAGGAUCACCCAUGUGAUUCAUCUGC [Omei Ex4B B7] (Eterna round: R97, puzzle: Brourd's mod of Exclusion 4) 211

Dear colleague, I am looking for the recorded apparent KD of MS2 coat protein of the following sequence: GGUAUGCAGGCUUUAGGUAACAUGAGGAUCACCCAUGUAGCAGGUCGUAACCAGGUCAUUGGUUCUCAACGCUCGUU [Eternabot (L2) Solution 46] (Eterna round: R97, puzzle: Sensor, turn-off variant 1) 31.4

Sample UAUAGUUCAGGAUAUGAUGAAUUAAACAUGAGGAUCACCCAUGUAGAUCCUGAAUUAACAUCAGAAGGGAAUAUUU [JL-ex5-4.49 Brourd mod] (Eterna round: R97, puzzle: Exclusion 5) — what was its apparent KD of MS2 coat protein? 17.4

Please turn your attention to the following entry.
Please give the measured apparent KD of MS2 coat protein for this sequence: ACAAGCUUAAAGGUGAAUAACAUGAGGAUCACCCAUGUUCGUCUUAUAAAAAUAAAAAUAAAAAAUAAAAAAUAAAA [Sensor V2: 62] (Eterna round: R96, puzzle: Sensor v2, turn-off variant) 25.6

====

Tested on: MS2 coat protein
test: apparent KD of MS2 coat protein; designed switch direction (-1 OFF switch, 1 ON switch): -1; higher = weaker reporter binding
experimental.parameters: input ligand: FMN 200 uM
apparent KD of MS2 coat protein values, listed per item
Use nM as the unit, but write only the number.

Reference set, count: 3
Quick one: apparent KD of MS2 coat protein of UAUUAGCAAGCAAGAUCCUACAUGAGGAUCACCCAUGUGCUCGUCUUAAGCCCAGAAUUACUGGGCGCUCGUCUUAU [Winner reversed engineered 21] (Eterna round: R97, puzzle: Sensor, turn-off variant 1) ? 521

What value of apparent KD of MS2 coat protein has been recorded for this entry: UUUUUCUCAGGAUAUACAUGAGGAUCACCCAUGUAUAUUGAUGAUAAUACAUGGGAAUGUAGAAGGGAGCUCAU [Omei Ex3 Pseudoloop 16] (Eterna round: R97, puzzle: Exclusion 3) 87.9

Return reported apparent KD of MS2 coat protein; argument: GGAAUGUAAGGAUAUCCGAAAGGAAGGAGAGGGAGAGGGAAGGAGAAGGUACAUGAGGAUCACCCAUGUAAGGG [AK-MS2ROC-r4-exclusion4-9] (Eterna round: R97, puzzle: Exclusion 4) 88.5

With those in mind, consider the next sequence.
Suppose we examine the sequence CGAUAAAAGACAGGAUAUGAGGAGAGAGAGAGAUCAGAAGGGUCACAUGAGGAUCACCCAUGUGAGUUCUCGAUAAGAAACACC [Prohibition 53 - Jieux - Exclusion NG 1] (Eterna round: R96, puzzle: Exclusion NG 1) ; what apparent KD of MS2 coat protein value has been reported? 13.8

====

Measured apparent KD of K4 kissing-loop reporter, listed per entry for reference.
Test system: K4 kissing-loop RNA reporter
test: apparent KD of K4 kissing-loop reporter; higher = weaker reporter binding
experimental.parameters: Eterna round: R107; input ligand: arginine 13.2 mM
Give a bare numeral; the unit nM is implied.

Record request: apparent KD of K4 kissing-loop reporter value, item CUUGGAAAGACGGCCGCCACUGGCCAGUGAUGUUGGCCCACCAGGUAAGCCAAGAAGCUUGACGUCAGGACCGGGUCCUAGGAAU [Exclusion TRyptophan B GF 23] 449

Dear colleague, I am looking for the recorded apparent KD of K4 kissing-loop reporter of the following sequence: ACGUAUAUCAGAGGAUAUCGUAUUAAUAUUUUAUCUAUAUAGUUUUGCAGUGAUGUUGCAAUUAUUCGAGAAGGCUGAUUUACGA [JR_SSFMNB_Sub024] 95.6

Can you look up the measured apparent KD of K4 kissing-loop reporter of GCGCGUCAUGUCAGCGGUGACACUGUCGAUACCAGCGCCGCAAGGCGCCCUUGGCAGCGACGCGCUGGAGUGAUGUUCCAGCGUG [#2 Exclusion - Theophylline A Attempt #14 (HarryS)] for me? 148

====

Tested on: K4 kissing-loop RNA reporter;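 note: bound reporter read as fluorescence of individual clusters on recovered sequencing chips by microscopy, with normalized cluster intensities fitted with a binding model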
test: apparent KD of K4 kissing-loop reporter; higher = weaker reporter binding
experimental.parameters: Eterna round: R107; input ligand: FMN 200 uM
endpoint: apparent KD of K4 kissing-loop reporter (nM)
The reply should be a number in nM, with the unit left off.

Some entries whose results are on file:
Need apparent KD of K4 kissing-loop reporter, item ACGCUUGAAUAACAAGCGAAAUAAAAUUCGCGAGGACCGGUACGGCCGCCACUCGCUAACUGCGAGUGAUGUUCGAUAAUAAAAU [Mat - Mod of OpenEnded 3 - D16] 139

Which measured apparent KD of K4 kissing-loop reporter value corresponds to GGUAGCAUGGCGGCCGCCACUCUUCAUUAGUGAUGUUAAUGCCGAGUGCGCUAACUCCGCCAGGAGAGGACCGGGCCAUGCUACC ? 397

Name the reported apparent KD of K4 kissing-loop reporter value associated with the sequence GGAGGGAUCUCGGCCGCCACUCAUAAGAAAUGGGCCUCAGGGAUAUAGUGAUGUUAUGUAAAGAAGAGGACCGGGAGAAAGAAGG [ExTryptoB.Dc] 263

Quick check: apparent KD of K4 kissing-loop reporter of CGGCGCGGCGCGGCCGCCACUGCGCCUGGGCGCUCGCCGAGUGAUGUUCGUCGGCGGUCGGGUGGCAGGACCGGGUGCCGGCCCG [BDazzled - #20 SS Tryptophan B] ? 295

Given the entry UUACGAGUGAUGUUCGAAUAAAUCCAUUCAGAGGAUAUAGUAUUAACUAGAAGGCUGAAACCAACUUCGAGUGAUGUUCGAGGAU [Same State FMN A GF 3] , report its measured apparent KD of K4 kissing-loop reporter. 94.5

***
What measured apparent KD of K4 kissing-loop reporter goes with UUUAAAUAUAGUGAUGUUAUAUAACAAUGACGAGGACCGGUACGGCCGCCACUCGAGAGAGAUAAUGGUCAUGCAAAUGUAUGUC [#15 K4 Tryptophan A Same State] ? 674

====

Recorded apparent KD of MS2 coat protein by entry
Test system: MS2 coat protein
test: apparent KD of MS2 coat protein; higher = weaker reporter binding
experimental.parameters: Eterna round: R107; input ligand: theophylline 2 mM
# number only, unit nM dropped from output

For the sequence shown here, GCAUCAUGAACGGCCGCCACUAAGGAAUGAGCGGCUCUUGCGAUACAUGAGGAUCACCCAUGUCUUAGGACCGGGUUCAUUGUCA [theeternabot_sameState_MS2_Trp_B_49] , give the reported apparent KD of MS2 coat protein. 322

Reported apparent KD of MS2 coat protein, sequence AAGACAUGAGGAUCACCCAUGUCGUCUACACGAGGACCGGUACGGCCGCCACUCGUUUGCCAAUGAGCGCAUGCGGCCUGGGUAU [Exclusion Tryp A GF3] : ____ 16.3

Let us move to another entry and its apparent KD of MS2 coat protein.
Please look up its apparent KD of MS2 coat protein: AGAUUCGACACGGCCGCCACUCGUGACGGAUUUCCGAGUGUCGAACAUGAGGAUCACCCAUGUCCGAGGACCGGGUGUUGAGUCU [XTryp B #12] 55.9
